target: Full-length glucokinase (beta cell isoform) (Homo sapiens, UniProt P35557); construct: Full-length glucokinase (beta cell isoform) was His-tagged at N-terminus; His tag (N); made in house; assay: Glucokinase biochemical assay (PK/LDH-coupled, NADH depletion at 340 nm): % activation, EC50, % max activation; details: 5 mM glucose; fitted maximum activation; read-out: % Max Activation
Sequence (P35557 whole entry, species assumed, canonical isoform): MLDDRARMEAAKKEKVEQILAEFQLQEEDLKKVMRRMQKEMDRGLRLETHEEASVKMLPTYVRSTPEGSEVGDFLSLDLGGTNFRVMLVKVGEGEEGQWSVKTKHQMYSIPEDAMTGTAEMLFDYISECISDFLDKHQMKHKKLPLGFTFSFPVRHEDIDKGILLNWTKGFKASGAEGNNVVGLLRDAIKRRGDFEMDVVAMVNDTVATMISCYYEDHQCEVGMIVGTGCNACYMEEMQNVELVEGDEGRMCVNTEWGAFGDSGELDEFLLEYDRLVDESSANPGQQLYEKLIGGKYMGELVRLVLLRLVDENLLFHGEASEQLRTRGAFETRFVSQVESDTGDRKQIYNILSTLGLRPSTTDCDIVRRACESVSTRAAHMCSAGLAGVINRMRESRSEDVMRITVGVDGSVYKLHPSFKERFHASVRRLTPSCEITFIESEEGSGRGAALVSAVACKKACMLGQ
readout kind: Emax (%)

Cc1ccc(NC(=O)c2cc(Oc3ccc(S(C)(=O)=O)cc3)c3c(c2)OC(C)C3)nc1 (stereo not shown) [Example 10] ... 122
Cc1cc2c(Oc3ccc(S(C)(=O)=O)cc3)cc(C(=O)Nc3ccccn3)cc2o1 [Example 257] ... 119
Cn1ccc(NC(=O)c2cc(OCc3nc(-c4ccccn4)no3)c3c(c2)OC(C)(C)C3)n1 [Example 98] ... 165
Cc1cc2c(Oc3ccc(S(C)(=O)=O)cc3)cc(C(=O)Nc3cnc(N(C)C)cn3)cc2o1 [Example 262] ... 137
